# System: SN12C
# run description: NCI tumour cell line growth inhibition, 48 h
The source made the active and inactive calls. Rule as the data show it: active = GI50 up to about 1.1 µM and inactive = higher.
assay readout: GI50

// worked examples, GI50 included
Which GI50 reading was recorded for the compound CN(C)CC1(C)CC/C(=C\c2ccc(Cl)cc2)C1=O (centres undefined) ?
51.3 µM (inactive)

Consider the compound shown here: "CN(C)CCCc1cccnc1" What is its recorded GI50?
> 100 µM (inactive)

Fill in: GI50 of "Cc1cc(S(=O)(=O)Nc2nc(Nc3ccc4ccccc4c3)n[nH]2)c(S)cc1Cl" is ___
48.2 µM (inactive)

Reported GI50 for "CC(=O)/N=C1/N(/C=C2\C(=O)Oc3ccccc3C2=O)C(=O)/C(=C/c2ccccc2Cl)N1C" : what is it?
> 100 µM (inactive)

Give the measured GI50 of C=C1C(=O)O[C@H]2C1[C@H](OC(=O)/C(C)=C\COC(C)=O)C[C@]1(CO1)[C@@H]1[C@H](O)[C@H]3O[C@@]3(C)[C@@H]12 (some centres undefined) .
22.3 µM (inactive)

Entry under review: "COC(=O)CCCC(=O)/C(=N\Nc1ccc(Cl)cc1)Nc1c(Cl)cccc1Cl" . Reported GI50?
> 100 µM (inactive)

For "O=[N+]([O-])c1c(Br)cc(Br)c2c1Nc1c(ccc(Cl)c1Cl)S2" , what is its reported GI50?
13.8 µM (inactive)

Fill blank: measured GI50 of the compound COc1ccc2c3c(ccc2c1)NC(C(=O)O)CC3 (centres undefined) is ____.
63.1 µM (inactive)

As a next step, examine the compound that follows.
# GI50 lookup, item "CC1(C)N=c2c(ncn2Cc2ccccc2)=C(C(N)=O)N1"
> 100 µM (inactive)
